Test system: Pol I transcription
Assay: Inhibition of Pol I transcription: 47S precursor rRNA levels by quantitative RT-PCR after 1 h treatment
Format: cell-based, human
Conditions: Homo sapiens, 1 h, ES2, 1 h, mean n=3; read-out: IC50 Pol I transcription
observedProperty: pIC50
// pIC50: -log10(molar conc.)

Can you share its pIC50? I mean this molecule: Cc1cnc(CNC(=O)c2c(=O)c3ccc(N4CCCN(C)CC4)nc3n3c2sc2ccccc23)cn1
7.26

* * *

Tested on: Pol I transcription
Experiment: Inhibition of Pol I transcription: 47S precursor rRNA levels by quantitative RT-PCR after 1 h treatment
Format: cell-based, human
Conditions: Homo sapiens, 1 h, RMG2, 1 h, mean n=3; read-out: IC50 Pol I transcription
observedProperty: pIC50
Interpret pIC50 as the negative base-10 log of the concentration measured in mol/L.

# query: pIC50 of entry Cc1cnc(CNC(=O)c2c(=O)c3ccc(N4CCCN(C)CC4)nc3n3c2sc2ccccc23)cn1
6.95

All figures here come from paper PMC7251123.
